These entries and their values trace back to paper PMC2728155.

- Target desc: murine sEH (Mus musculus)
- Sequence (P34914 whole entry): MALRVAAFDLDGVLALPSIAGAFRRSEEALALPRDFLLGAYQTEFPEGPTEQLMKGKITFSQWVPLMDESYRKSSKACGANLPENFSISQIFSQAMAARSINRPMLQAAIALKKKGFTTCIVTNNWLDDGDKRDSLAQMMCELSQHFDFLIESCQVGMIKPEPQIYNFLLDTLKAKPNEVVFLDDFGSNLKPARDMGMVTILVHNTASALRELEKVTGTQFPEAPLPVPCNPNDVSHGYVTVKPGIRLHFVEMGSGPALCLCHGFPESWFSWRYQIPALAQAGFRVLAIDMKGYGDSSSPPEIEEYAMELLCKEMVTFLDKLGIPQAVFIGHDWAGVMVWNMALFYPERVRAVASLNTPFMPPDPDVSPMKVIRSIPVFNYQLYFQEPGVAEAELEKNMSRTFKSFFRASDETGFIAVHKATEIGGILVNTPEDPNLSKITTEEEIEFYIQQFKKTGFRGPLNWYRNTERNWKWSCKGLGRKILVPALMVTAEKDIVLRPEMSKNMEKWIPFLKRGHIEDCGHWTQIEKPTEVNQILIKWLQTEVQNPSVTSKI
Measurement type: IC50

Data request: Which measured IC50 value corresponds to `Cc1nc(Nc2ncc(C(=O)Nc3c(C)cccc3Cl)s2)cc(N2CCN(CCO)CC2)n1` ?
Data returned: 27 µM

----------
- Target desc: human sEH (Homo sapiens)
- Sequence (P34913 whole entry): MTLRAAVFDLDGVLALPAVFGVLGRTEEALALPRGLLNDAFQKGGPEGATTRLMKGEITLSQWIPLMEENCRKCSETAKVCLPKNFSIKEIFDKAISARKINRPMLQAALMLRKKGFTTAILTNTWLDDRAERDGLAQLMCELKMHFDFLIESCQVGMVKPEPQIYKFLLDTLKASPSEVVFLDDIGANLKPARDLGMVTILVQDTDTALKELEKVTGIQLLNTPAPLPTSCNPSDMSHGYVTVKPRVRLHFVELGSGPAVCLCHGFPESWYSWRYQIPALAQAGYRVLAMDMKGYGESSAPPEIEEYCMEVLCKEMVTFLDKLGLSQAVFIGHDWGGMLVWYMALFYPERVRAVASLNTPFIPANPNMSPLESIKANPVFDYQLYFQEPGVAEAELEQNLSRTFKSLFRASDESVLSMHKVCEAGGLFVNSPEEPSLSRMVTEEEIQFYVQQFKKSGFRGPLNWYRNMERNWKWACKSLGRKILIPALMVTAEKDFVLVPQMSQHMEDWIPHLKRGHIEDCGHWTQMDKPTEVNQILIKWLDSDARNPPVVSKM
- Run description: biochemical
- Type: biochemical
- Experimental setup: read-out: Inhibition of the Human sEH IC50; pH 7
Measurement type: IC50 (nM)
Note: unit nM is implicit; provide only the numeric part.

Data request: Consider the molecule shown here: CS(=O)(=O)N1CCC(NC(=O)Nc2ccc(OC(F)(F)F)cc2)CC1 [TUPS] What is its recorded IC50?
Data returned: 3
